The origin of these recorded values is PubChem BioAssay (NCI).

Assignment: determine reported TGI for the given compounds.
System: SK-MEL-5 melanoma
assay.protocol: NCI tumour cell line growth inhibition, 48 h
Numbers only, in µM.

| compound | target.or.system | TGI (µM) |
| --- | --- | --- |
| CC1(Br)Cc2ccccc2C1=O (stereo unspecified) | SK-MEL-5 melanoma | 12.5 |

Quick one: give me TGI for each item below, same order please.
1. NCCCn1c2c(c3ccc([N+](=O)[O-])cc3c1=O)C(=O)c1ccccc1-2
2. CN(C)C(=S)Sc1ccc([N+](=O)[O-])cc1[N+](=O)[O-]

**A:**
0.479
5.82

Quick one: give me TGI for each item below, same order please.
1. C[C@H]1CN[C@@H]2[C@@H](C)[C@H]3[C@@H](C[C@H]4[C@@H]5CC[C@H]6C[C@@H](N)CC[C@]6(C)[C@H]5CC[C@]34C)O[C@@]2(O)C1
2. C=CCc1ccc(O)c(-c2ccc(O)c(CC=C)c2)c1

**A:**
1: 10.4; 2: 23.4

###

System: SN12C renal
assay.protocol: NCI tumour cell line growth inhibition, 48 h
Assignment: determine reported TGI for the given compounds.

Some compounds with known TGI results, for comparison:
| compound | target.or.system | assay.endpoint | result |
| --- | --- | --- | --- |
| COC(=O)C1=C(C(=O)OC)C2=S(SC3=C2CCCC3)S1 (stereo unspecified) | SN12C renal | TGI | > 100 µM |
| C#Cc1nc(Nc2cc(C)[nH]n2)c2ccccc2n1 | SN12C renal | TGI | 0.726 µM |
| COc1ccc(/C=C(\C(C)=O)C(=O)Nc2ccccc2)cc1 | SN12C renal | TGI | > 100 µM |
| CCOC(=O)/C=C(/C(=O)OCC)n1cnc2c(=O)[nH]c(NC(C)=O)nc21 | SN12C renal | TGI | > 100 µM |
| CCOc1nnnc2nc[nH]c12 | SN12C renal | TGI | > 100 µM |

# context switch: different compound, same TGI
**Q:** Bench note: what TGI did O=C(CC(C(=O)c1ccsc1)c1ccccc1)c1ccccc1 (stereo unspecified) show?
**A:** > 100 µM

###

Test system: SNB-75 CNS
assay.protocol: NCI tumour cell line growth inhibition, 48 h
assay.endpoint: TGI (µM)
One number for each entry, in µM.

| query.smiles | TGI / µM |
| --- | --- |
| CC1=C(CO)C2=C(C)C3(CC3)[C@@](C)(O)C(=O)C2=C1 | 0.473 |

# context switch: different molecule, same TGI
**Q:** Missing value: TGI, SNB-75 CNS, entry COc1ccc(OC)c(/C=C(/C#N)c2ccccc2)c1 . Fill in?
**A:** 32.8

###

Tested on: A498 renal
assay.protocol: NCI tumour cell line growth inhibition, 48 h
assay.endpoint: GI50

| molecule | GI50 |
| --- | --- |
| COc1cc(/C=C/C(=O)c2cccc(-n3cc(-c4ccc(Cl)cc4)[nH]c3=O)c2)ccc1O | 5.78 µM |
| CCOC(=O)/C=C/c1ccc(C#Cc2ccccc2)cc1 | 44.9 µM |
| COc1ccc(C(O)(CCC(C)C)C(CN2CCOCC2)c2ccc(Cl)cc2)cc1 (centres undefined) | 10.9 µM |

**Q:** Bench note: what GI50 did Cc1ccc(Nc2oc(-c3ccccc3)nc2[P+](c2ccccc2)(c2ccccc2)c2ccccc2)cc1 show?
**A:** 0.697 µM

###

Tested on: SK-MEL-28 melanoma
assay.protocol: NCI tumour cell line growth inhibition, 48 h
assay.endpoint: TGI

Some compounds with known TGI results, for comparison:
| compound | assay.endpoint | result |
| --- | --- | --- |
| CNCCCn1c2ccccc2c2c3c(c(-c4ccsc4)cc21)C(=O)NC3=O | TGI | 3.36 µM |
| COC(=O)c1s/c(=N\C(=S)N(C)C)n(-c2ccc(Cl)cc2)c1C(=O)OC | TGI | > 100 µM |

Quick one: give me TGI for each item below, same order please.
1. COC(=O)C(C(=O)Cc1ccccc1[N+](=O)[O-])C(=O)OC
2. COc1ccc(C(C#N)NNC(=O)Cc2ccccc2)cc1OC (stereo unspecified)
3. C=CN1C(=O)[C@H](Oc2ccccc2)[C@@H]1c1ccccc1
4. CC(=O)N(C)CCc1c[nH]c2ccccc12
5. O=[N+]([O-])c1ccc(CI)cc1

**A:**
["> 100 µM", "> 100 µM", "> 100 µM", "> 100 µM", "18.2 µM"]

Quick one: give me TGI for each item below, same order please.
1. COC1=C(Br)[C@H](O)[C@@]2(C=C1Br)CC(C(=O)NCCCOc1c(Br)cc(C(O)CNC(C)=O)cc1Br)=NO2 (stereo partly specified)
2. [N-]=[N+]=CC(=O)OC1Cc2ccccc2C1
3. Cc1cccc2c1Sc1ccccc1C2NC(=O)CCN(C)C (stereo unspecified)
4. N#Cc1c(-c2ccc(Cl)cc2)c(C#N)c(=O)n(NS(=O)(=O)c2ccccc2)c1O

**A:**
> 10 µM
> 100 µM
> 100 µM
> 100 µM

###

Test system: XF 498 CNS
assay.protocol: NCI tumour cell line growth inhibition, 48 h
assay.endpoint: TGI (µM)
Answers are plain numbers, in µM.

Some compounds with known TGI results, for comparison:
| query.smiles | target.or.system | unit.of.measure | TGI |
| --- | --- | --- | --- |
| Cn1c2ccccc2c2ncc3[nH]c4ccccc4c3c21 | XF 498 CNS | µM | 31.8 |
| COc1ccc2c(c1)CCCN2CCCCCCCCCCN(CCC(C)C)CCC(C)C | XF 498 CNS | µM | 20.9 |
| C=CN1C(=O)[C@H](Oc2ccccc2)[C@@H]1c1ccccc1 | XF 498 CNS | µM | 84 |

# context switch: different compound, same TGI
**Q:** Bench note: what TGI did O=P1(c2ccccc2)Nc2ccccc2SSc2ccccc2N1 show?
**A:** 32.7

###

System: HCT-15 colon
assay.protocol: NCI tumour cell line growth inhibition, 48 h
Assignment: determine reported TGI for the given compounds.

| compound | target.or.system | TGI |
| --- | --- | --- |
| COc1cc2c(cc1OC)C1C[C@]3(CCN1CC2)C(=O)N(c1ccccc1)C(=O)N3C(C)=O (stereo partly drawn) | HCT-15 colon | > 200 µM |
| CC(C)=CCC/C(C)=C/CC/C(C)=C/CC(CO)N(C)CC/C=C(\C)CCC=C(C)C (stereo not drawn) | HCT-15 colon | 14.8 µM |
| CC1OC(OC2C(OC(=O)[C@]34CCC(C)(C)C[C@H]3C3=CC[C@@H]5[C@@]6(C)CC[C@H](OC7OC(CO)C(O)C(O)C7OC7OC(CO)C(O)C(O)C7O)C(C)(C)[C@@H]6CC[C@@]5(C)[C@]3(C)CC4)OCC(O)C2O)C(O)C(OC2OCC(O)C(O)C2O)C1OC1OCC(O)C(OC2OCC(O)C(O)C2O)C1O (stereo partly drawn) | HCT-15 colon | > 79.4 µM |
| CC(C)=CCc1cc(O)cc2c1OC(C=C(C)C)C1=C2C(=O)C2=C(C1=O)S(=O)(=O)CCN2 (stereo not drawn) | HCT-15 colon | > 16.7 µM |
| Nc1c(C(=O)c2ccccc2)cnn1-c1ccc(F)cc1 | HCT-15 colon | > 25 µM |
| COC(=O)NC(C(F)(F)F)(C(F)(F)F)P1(=O)OCCCO1 | HCT-15 colon | 59 µM |

Quick one: give me TGI for each item below, same order please.
1. CCOC(=O)c1c(-c2ccc(OC)cc2)c(C#N)c2c(C#N)c(N)nn2c1N
2. O=c1nc(N2CCNCC2)oc2cc(Cl)oc(=O)c12

**A:**
1: > 100 µM; 2: 15 µM

###

Assignment: determine reported TGI for the given molecules.
Tested on: XF 498 CNS
assay.protocol: NCI tumour cell line growth inhibition, 48 h
Give bare numbers, in µM.

| molecule | target.or.system | TGI, µM |
| --- | --- | --- |
| Nc1n[nH]c(=O)c2c1c(I)cn2C1OC(CO)C(O)C1O (centres undefined) | XF 498 CNS | 8.3 |
| CN(C)CCNC(=O)c1cccc2ccc(-c3ccc(F)cc3)nc12 | XF 498 CNS | 10.2 |
| CSc1nc(NC2OC(COC(C)=O)C(OC(C)=O)C(OC(C)=O)C2OC(C)=O)c(N=CC=Nc2c(NC3OC(COC(C)=O)C(OC(C)=O)C(OC(C)=O)C3OC(C)=O)nc(SC)n(C)c2=O)c(=O)n1C (centres undefined) | XF 498 CNS | 30.3 |
| C=CCN1CCC23c4c5ccc(O)c4OC2C(=NN=C2CCC4(O)C6Cc7ccc(O)c8c7C4(CCN6CC=C)C2O8)CCC3(O)C1C5 (centres undefined) | XF 498 CNS | 32.9 |

**Q:** Bench note: what TGI did CCCCC/C=C1\CCC(CN(C)C)C1=O (centres undefined) show?
**A:** 28.3
